Assay System: T1, full-length human Nectin-4 on cells (human, UniProt Q96NY8 32-510)
T1 construct: the cell is named under assay; also called CHO-Nectin-4 cells; Nectin-4-CHO
T1 sequence: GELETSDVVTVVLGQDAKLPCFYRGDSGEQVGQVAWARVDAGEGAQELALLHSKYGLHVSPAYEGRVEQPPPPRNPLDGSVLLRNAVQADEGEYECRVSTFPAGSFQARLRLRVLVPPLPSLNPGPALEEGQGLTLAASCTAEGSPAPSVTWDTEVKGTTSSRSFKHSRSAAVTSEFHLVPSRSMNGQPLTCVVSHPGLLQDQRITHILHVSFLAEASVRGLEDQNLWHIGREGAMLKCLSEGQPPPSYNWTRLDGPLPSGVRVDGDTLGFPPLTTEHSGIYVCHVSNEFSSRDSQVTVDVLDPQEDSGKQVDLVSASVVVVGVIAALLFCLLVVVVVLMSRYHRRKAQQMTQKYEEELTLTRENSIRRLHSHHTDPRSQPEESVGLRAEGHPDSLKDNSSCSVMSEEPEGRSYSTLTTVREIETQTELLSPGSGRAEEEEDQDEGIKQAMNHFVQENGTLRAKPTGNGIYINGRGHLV
Assay Text: flow cytometry, CHO-Nectin-4 cells
Observed Property: EC50 (nM)

Binder: N4_mAb 6 (antibody, human IgG1, V domains shown, Tested as chimera (murine variable regions, human IgG1/kappa constants); not shown: human IgG1 constant region (Uniprot P01857); human Kappa light chain constant region (UniProt P01834)) VH: QVQLQQSGPELVKPGASVRISCKASGYTFTTYYIHWVKQRPGQGLEWIGWIYPGNVNTKYTENFKDKATLTADKSSSTAYMQLSSLTSEDSAVYFCARGLYYFDFWGQGTTLTVSS VL: SIVMTQTPKFLLVSAGDRVTITCKASQSVNNDVAWYQQKPGQSPKLLIYYASNRDTGVPDRFTGSGFGTDFTFTISSVQAEDLAVYFCQQDYSSPYTFGGGTKLEIK
Measured Value: 0.12
